src = paper PMC6500773

# tgt: hNET (Homo sapiens)
# Sequence (P23975 whole entry): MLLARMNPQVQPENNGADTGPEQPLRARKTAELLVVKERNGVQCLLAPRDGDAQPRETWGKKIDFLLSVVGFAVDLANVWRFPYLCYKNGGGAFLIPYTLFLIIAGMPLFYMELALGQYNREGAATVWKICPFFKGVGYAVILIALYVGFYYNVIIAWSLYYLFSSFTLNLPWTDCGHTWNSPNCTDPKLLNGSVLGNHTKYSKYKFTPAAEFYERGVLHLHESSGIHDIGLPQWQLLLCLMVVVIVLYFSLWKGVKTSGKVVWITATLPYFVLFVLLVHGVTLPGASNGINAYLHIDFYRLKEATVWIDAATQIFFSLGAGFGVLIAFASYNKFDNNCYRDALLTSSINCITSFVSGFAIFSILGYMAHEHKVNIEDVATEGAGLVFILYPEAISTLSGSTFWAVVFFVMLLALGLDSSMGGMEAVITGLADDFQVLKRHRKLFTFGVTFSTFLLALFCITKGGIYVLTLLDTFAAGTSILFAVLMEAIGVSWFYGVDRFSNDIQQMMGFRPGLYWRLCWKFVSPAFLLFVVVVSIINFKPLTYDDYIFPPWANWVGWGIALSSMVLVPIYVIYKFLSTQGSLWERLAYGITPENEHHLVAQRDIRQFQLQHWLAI
# method.summary: cell-based
# condition.label: read-out: Inhibition of [3H]neurotransmitter uptake IC50 ± sem, hNET [3H]NE; HEK-hNET cells
Please assign no (0) whenever IC50 is at or above 100 nM, and yes (1) whenever it is below.

[ask] Report whether reported IC50 is lower than 100 nM (strictly) for CNC(C)Cc1ccc2occc2c1 (centres unmarked)
[reply] yes (1)

[ask] What do we get for CCCC(NCC)C(=O)c1ccc2c(c1)OCO2 (centres unmarked) ?
[reply] no (0)

[ask] What do we get for CCCC(NC)C(=O)c1ccc(Cl)cc1 (centres unmarked) ?
[reply] no (0)
